- tested_target: cloned human 5-HT1A receptors (Homo sapiens, UniProt P08908)
- Construct: expressed in transfected cells
- Sequence (P08908 whole entry): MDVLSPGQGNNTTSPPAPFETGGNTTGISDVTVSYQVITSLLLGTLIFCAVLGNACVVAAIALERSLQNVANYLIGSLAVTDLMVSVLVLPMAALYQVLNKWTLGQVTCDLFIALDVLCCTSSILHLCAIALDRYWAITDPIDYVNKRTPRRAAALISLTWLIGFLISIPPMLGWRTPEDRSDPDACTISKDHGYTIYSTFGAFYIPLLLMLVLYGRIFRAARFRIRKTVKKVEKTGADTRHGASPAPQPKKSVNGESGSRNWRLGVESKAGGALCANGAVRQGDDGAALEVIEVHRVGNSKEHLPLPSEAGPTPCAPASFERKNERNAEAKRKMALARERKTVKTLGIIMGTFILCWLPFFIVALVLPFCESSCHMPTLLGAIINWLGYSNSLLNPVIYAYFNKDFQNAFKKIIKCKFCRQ
- test_name: 35S-GTPγS binding assay for antagonist activity at 5-HT1A receptors
- Format: biochemical
- condition_label: membranes with cloned human 5-HT1A receptors, reversal of agonist 8-OHDPAT, read-out: 5-HT1A Function (Imax), maximum inhibitory effect
property: Emax (%)
Quick note: give the figure in %, leave out the unit.

compound	tested_target	units_symbol	Emax
Cc1ccc2c3c(ccc2n1)OCC(CN1CC=C(c2csc4ccc(F)cc24)CC1)O3 (stereo not shown)	cloned human 5-HT1A receptors (Homo sapiens, UniProt P08908)	%	87.4
Cc1ccc2c3c(ccc2n1)OCC(CN1CCC(c2nc4ccccc4o2)CC1)O3 (stereo not shown)	cloned human 5-HT1A receptors (Homo sapiens, UniProt P08908)	%	100
Cc1ccc2c3c(ccc2n1)OCC(CN1CC=C(c2csc4ccc(Cl)cc24)CC1)O3 (stereo not shown)	cloned human 5-HT1A receptors (Homo sapiens, UniProt P08908)	%	100
C1=C(c2csc3ccccc23)CCN(CC2COc3ccc4[nH]ccc4c3O2)C1 (stereo not shown)	cloned human 5-HT1A receptors (Homo sapiens, UniProt P08908)	%	100
COc1cccc2c(C3=CCN(C[C@H]4COc5ccc6nc(C)ccc6c5O4)CC3)coc12	cloned human 5-HT1A receptors (Homo sapiens, UniProt P08908)	%	91
Cc1ccc2c3c(ccc2n1)OCC(CN1CCC(c2cc4ccccc4o2)CC1)O3 (stereo not shown)	cloned human 5-HT1A receptors (Homo sapiens, UniProt P08908)	%	100
Fc1ccc2scc(C3=CCN(CC4COc5ccc6ncccc6c5O4)CC3)c2c1 (stereo not shown)	cloned human 5-HT1A receptors (Homo sapiens, UniProt P08908)	%	30
Fc1ccc2scc(C3=CCN(C[C@H]4COc5ccc6[nH]ccc6c5O4)CC3)c2c1	cloned human 5-HT1A receptors (Homo sapiens, UniProt P08908)	%	100
Cc1ccc2c3c(ccc2n1)OCC(CN1CC=C(c2csc4ccccc24)CC1)O3 (stereo not shown)	cloned human 5-HT1A receptors (Homo sapiens, UniProt P08908)	%	100
Cc1ccc2c3c(ccc2n1)OCC(CN1CC=C(c2cc4ccccc4o2)CC1)O3 (stereo not shown)	cloned human 5-HT1A receptors (Homo sapiens, UniProt P08908)	%	70

Q: State the recorded Emax for this entry: Cc1ccc2c3c(ccc2n1)OCC(CN1CC=C(c2cccc4ccsc24)CC1)O3 (stereo not shown)
Ans: 40.5

Q: What would you report for Cc1nc2ccc3c(c2o1)OC(CN1CC=C(c2csc4ccccc24)CC1)CO3 (stereo not shown) ?
Ans: 50

Q: What would you report for C1=C(c2csc3ccccc23)CCN(CC2COc3ccc4ncccc4c3O2)C1 (stereo not shown) ?
Ans: 100

----------
- tested_target: serotonin transporter (Rattus norvegicus, UniProt P31652)
- Construct: displace ^3H-paroxetine from male rat frontal cortical membranes; from tissue; host or cells: male rat frontal cortex membranes
- Sequence (P31652 whole entry): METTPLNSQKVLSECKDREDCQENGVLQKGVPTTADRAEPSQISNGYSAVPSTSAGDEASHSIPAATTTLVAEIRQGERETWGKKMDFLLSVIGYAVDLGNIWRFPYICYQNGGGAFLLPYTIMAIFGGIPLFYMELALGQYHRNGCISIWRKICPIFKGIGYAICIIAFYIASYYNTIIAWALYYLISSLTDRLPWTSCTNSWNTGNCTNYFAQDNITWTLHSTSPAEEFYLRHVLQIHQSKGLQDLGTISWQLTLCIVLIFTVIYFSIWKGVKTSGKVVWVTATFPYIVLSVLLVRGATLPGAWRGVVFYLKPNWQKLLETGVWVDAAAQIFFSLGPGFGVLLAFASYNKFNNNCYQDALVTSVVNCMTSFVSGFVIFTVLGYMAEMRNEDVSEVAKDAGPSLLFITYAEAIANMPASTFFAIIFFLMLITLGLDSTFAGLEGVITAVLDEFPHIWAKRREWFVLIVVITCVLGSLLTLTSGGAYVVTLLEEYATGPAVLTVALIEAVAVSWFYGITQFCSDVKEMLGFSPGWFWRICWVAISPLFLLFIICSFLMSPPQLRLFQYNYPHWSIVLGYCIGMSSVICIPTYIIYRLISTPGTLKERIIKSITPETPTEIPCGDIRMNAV
- test_name: 3H-paroxetine displacement from rat frontal cortical membranes (serotonin transporter affinity)
- Assay type: binding
- condition_label: displacement of 3H-paroxetine, male rat frontal cortical membranes; read-out: 5-HT Transporter Affinity KI
property: Ki (nM)
Quick note: give the figure in nM, leave out the unit.

compound	units_symbol	Ki
Cc1ccc2c3c(ccc2n1)OCC(CN1CC=C(c2cc4ccccc4o2)CC1)O3 (stereo not drawn)	nM	213
Cc1ccc2c3c(ccc2n1)OCC(CN1CCC(c2nc4ccccc4o2)CC1)O3 (stereo not drawn)	nM	17

Now for another entry.
Q: State the recorded Ki for this entry: Cc1ccc2c3c(ccc2n1)OCC(CN1CCC(c2cc4ccccc4o2)CC1)O3 (stereo not drawn)
Ans: 109
